Listing: Fold KD vs WT of selected binders
Biological target: T1, CD30 fused to the Fc region of IgG1 (R&D Systems) (UniProt P28908 19-379)
T1 sequence (looked up): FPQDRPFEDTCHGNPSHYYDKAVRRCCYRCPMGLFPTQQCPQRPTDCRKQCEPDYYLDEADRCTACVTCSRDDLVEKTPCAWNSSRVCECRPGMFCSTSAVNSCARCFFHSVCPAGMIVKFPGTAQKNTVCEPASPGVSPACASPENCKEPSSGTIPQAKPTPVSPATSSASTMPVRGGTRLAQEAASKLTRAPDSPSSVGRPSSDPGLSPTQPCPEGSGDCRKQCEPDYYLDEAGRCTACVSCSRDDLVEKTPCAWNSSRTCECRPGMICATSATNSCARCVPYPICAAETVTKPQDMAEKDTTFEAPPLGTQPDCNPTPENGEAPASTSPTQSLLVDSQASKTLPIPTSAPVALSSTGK
Assay: SPR, CD30-Fc on Protein A chip
Reported endpoint: Fold KD vs WT (fold)

INSERT INTO results (binder, reported_endpoint, quantity_unit, observed_measurement) VALUES
  ('AC10 H3/L3 full length antibody (antibody, V domains shown) VH: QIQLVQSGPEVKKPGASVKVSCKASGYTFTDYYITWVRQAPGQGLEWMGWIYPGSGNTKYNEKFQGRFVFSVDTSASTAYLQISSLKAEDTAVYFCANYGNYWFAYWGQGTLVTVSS VL: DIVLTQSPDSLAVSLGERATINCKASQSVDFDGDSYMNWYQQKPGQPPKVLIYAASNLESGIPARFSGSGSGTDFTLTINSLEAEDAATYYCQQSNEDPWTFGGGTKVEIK', 'Fold KD vs WT', 'fold', 1.45),
  ('AC10 H1/L0 full length antibody (antibody, V domains shown) VH: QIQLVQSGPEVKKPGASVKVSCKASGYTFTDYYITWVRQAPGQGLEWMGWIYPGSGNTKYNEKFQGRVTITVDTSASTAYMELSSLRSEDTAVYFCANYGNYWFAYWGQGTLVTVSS VL: DIVLTQSPASLAVSLGQRATISCKASQSVDFDGDSYMNWYQQKPGQPPKVLIYAASNLESGIPARFSGSGSGTDFTLNIHPVEEEDAATYYCQQSNEDPWTFGGGTKLEIK', 'Fold KD vs WT', 'fold', 0.53);
